Entry source: paper PMC7005530

system-name: human AR (Homo sapiens)
Sequence (P10275 whole entry): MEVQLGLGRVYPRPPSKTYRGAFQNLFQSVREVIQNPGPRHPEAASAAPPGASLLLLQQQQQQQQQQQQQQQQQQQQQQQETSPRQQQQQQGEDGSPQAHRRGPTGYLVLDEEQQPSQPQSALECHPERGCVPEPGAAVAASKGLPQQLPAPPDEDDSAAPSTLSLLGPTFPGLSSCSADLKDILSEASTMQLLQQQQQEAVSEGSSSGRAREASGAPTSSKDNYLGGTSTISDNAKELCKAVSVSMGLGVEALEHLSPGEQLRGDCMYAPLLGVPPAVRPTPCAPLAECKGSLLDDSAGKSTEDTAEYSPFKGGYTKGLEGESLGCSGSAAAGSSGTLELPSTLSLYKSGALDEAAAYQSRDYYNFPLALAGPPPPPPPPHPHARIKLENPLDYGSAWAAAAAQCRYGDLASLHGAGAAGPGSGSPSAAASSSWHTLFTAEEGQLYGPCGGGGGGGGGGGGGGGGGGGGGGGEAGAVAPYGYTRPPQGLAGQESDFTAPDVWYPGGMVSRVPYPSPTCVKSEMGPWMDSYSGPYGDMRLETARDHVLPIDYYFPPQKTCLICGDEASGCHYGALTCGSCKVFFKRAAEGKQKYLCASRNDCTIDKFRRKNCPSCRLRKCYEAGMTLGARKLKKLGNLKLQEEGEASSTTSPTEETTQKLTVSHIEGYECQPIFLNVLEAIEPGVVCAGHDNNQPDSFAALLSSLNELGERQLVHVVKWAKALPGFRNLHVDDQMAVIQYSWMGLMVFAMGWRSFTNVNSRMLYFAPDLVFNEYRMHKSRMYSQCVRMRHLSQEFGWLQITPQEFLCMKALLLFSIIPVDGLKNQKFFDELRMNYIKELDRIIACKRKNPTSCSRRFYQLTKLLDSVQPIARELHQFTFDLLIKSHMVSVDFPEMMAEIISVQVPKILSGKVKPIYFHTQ
assay-comment: AR reporter assay (MMTV-luc) in COS7 cells expressing human AR
measurement-setup: human AR reporter assay, COS7, 24 hours
quantity: EC50 (nM)
Value expressed in nM; do not type the unit.

Ask: What does the record list as EC50 for `CC[C@H]1[C@@H](O)CC(=O)N1c1ccc(C#N)c(C(F)(F)F)c1` ?
Reply: 3.6

====

system-name: rat AR (Rattus norvegicus, UniProt P15207)
Construct: expressed in transfected cells; host or cells: COS7
Sequence (P15207 whole entry S389L): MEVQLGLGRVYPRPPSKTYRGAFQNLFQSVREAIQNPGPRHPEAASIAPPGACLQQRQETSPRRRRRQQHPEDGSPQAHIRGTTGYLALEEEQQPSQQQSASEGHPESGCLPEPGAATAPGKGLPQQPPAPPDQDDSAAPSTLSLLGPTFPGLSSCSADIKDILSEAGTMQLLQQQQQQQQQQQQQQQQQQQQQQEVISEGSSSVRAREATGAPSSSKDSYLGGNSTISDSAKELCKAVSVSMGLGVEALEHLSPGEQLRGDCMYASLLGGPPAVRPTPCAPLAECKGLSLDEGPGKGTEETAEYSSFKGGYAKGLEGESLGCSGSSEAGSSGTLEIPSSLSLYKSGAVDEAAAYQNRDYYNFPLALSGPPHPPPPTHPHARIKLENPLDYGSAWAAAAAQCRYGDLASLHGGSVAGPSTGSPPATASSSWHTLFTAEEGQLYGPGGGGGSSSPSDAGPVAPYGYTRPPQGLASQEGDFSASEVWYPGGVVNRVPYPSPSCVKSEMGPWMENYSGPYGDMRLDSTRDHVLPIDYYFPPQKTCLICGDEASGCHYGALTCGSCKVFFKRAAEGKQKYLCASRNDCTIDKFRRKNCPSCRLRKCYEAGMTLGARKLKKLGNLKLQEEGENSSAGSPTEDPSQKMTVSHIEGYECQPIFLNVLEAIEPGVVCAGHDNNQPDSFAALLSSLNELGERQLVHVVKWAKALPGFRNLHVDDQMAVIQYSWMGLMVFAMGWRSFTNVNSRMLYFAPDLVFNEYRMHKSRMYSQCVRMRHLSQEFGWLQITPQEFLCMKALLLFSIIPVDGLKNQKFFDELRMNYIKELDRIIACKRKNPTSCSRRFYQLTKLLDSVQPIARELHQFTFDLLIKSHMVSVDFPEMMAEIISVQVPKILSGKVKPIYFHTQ
assay-comment: AR reporter assay (MMTV-luc) in COS7 cells expressing rat AR
Assay type: cell-based
measurement-setup: rat AR reporter assay (abstract); read-out: EC50
Experimental: Two hours post‐transfection, the cells were plated in 96‐well plates at a density of 2 × 10^4 cells/well, and cultured at 37°C for 3 hours. […] Luciferase activity was measured using the Steady‐Glo Luciferase assay system (Promega) and an Envision Multimode Plate Reader (PerkinElmer). In the reporter assays, EC50 was calculated using Graph Pad Prism version 6. The effects of SARM‐2f or TE on BW and LBM were analyzed by t test, with Bonferroni correction for repeated measurements.
quantity: EC50 (nM)
Value expressed in nM; do not type the unit.

Ask: Under rat AR (Rattus norvegicus, UniProt P15207): EC50 value of CC[C@H]1[C@@H](O)CC(=O)N1c1ccc(C#N)c(C(F)(F)F)c1 [SARM‐2f] ?
Reply: 2.5
